assay.remarks: yeast display, Sf9 membrane polyspecificity reagent, FACS + sequencing; frameworks hold sequencing errors
attribute.measured: polyreactivity (PSR sort gate)

1) QVHLVETGGGLVQAGGSPRLSCAASGRTLLDYGLGWYRQAPGKERELVAGITSSGGRSYADSVKGRLTISRDNAKNTVYLEMNSLKPEDSAGYYCAAYLNLSELLRYHYWGKGTQVTVSS :: low polyreactivity
2) QVQLVESGGGLVQAGGSLRLSCAASGRIFYYNAMGWYRQAPGKERELVAAITYSGTSTYYADSVKGRFTISRDNAKNTVYLQMNSLKPEDSAVYYCAVDSTDQAPPTYDYWGQGTQVTVSS :: low polyreactivity
3) QVQLVESGGGLVQAGGSLRLSCADSGSIFEVYAMGWYRQAAGKERELVAAINYTGGSTYYADSVKGRFTISRDNAKITVYLQMNSLKPEDTAVYYCARDTSGNGTRYDYWGQGTQVTVSS :: low polyreactivity
